target-system: Adrenergic α2C (Homo sapiens)
Sequence (P18825 1-462): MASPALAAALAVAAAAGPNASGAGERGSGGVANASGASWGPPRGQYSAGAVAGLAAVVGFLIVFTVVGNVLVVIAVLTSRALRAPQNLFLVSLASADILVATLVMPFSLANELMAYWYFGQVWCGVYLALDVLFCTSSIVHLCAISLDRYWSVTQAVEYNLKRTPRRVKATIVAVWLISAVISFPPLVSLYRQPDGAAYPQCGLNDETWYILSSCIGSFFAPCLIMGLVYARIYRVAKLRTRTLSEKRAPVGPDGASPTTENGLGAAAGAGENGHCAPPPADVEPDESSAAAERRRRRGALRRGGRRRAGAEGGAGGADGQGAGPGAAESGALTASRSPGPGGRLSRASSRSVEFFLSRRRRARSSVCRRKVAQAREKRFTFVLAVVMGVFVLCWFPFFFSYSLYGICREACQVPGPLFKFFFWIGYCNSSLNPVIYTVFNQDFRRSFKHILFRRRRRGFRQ
assay-text: Radioligand binding Adrenergic α2C
cond: read-out: ki
observed-property: Ki
Give the figure together with its unit, number first.

Problem: API: value(readout= Ki, system= Adrenergic α2C (Homo sapiens), query= `c1ccc2c(c1)N=C(N1CCNCC1)c1ccccc1S2` )
Solution: 820 nM

---

target-system: dopamine D1 receptor (Homo sapiens)
Sequence (P21728 whole entry): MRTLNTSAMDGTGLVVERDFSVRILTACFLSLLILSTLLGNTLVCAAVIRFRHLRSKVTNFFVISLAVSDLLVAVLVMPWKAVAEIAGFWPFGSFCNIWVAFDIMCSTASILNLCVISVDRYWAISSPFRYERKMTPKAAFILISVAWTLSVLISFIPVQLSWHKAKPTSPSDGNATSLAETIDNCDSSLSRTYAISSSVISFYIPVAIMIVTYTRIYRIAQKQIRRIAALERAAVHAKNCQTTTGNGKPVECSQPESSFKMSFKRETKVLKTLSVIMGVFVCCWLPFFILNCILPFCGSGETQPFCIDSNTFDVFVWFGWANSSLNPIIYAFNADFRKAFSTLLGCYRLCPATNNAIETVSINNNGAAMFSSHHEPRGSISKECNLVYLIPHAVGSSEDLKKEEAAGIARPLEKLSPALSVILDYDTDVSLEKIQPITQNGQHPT
assay-text: In vitro binding, dopamine D1 receptor
cond: dihydrochloride salt; read-out: binding affinity K1
observed-property: pKi
Numbers only, as −log10 of the molar value.

Problem: What measured pKi is associated with Cl.Cl.c1ccc2c(c1)N=C(N1CCNCC1)c1ccccc1S2 [Example 2, dihydrochloride salt] on dopamine D1 receptor (Homo sapiens)?
Solution: 5.83

---

target-system: Adrenergic α2C (Homo sapiens, UniProt P18825)
assay-text: Radioligand binding Adrenergic α2C
cond: α2C; read-out: Affinity
observed-property: pKi
Answers are plain numbers, as −log10 of the molar value.

Problem: Report pKi for `c1ccc2c(c1)N=C(N1CCNCC1)c1ccccc1S2` please.
Solution: 6.09

---

assay-text: Oral bioavailability in Sprague-Dawley rats
Format: in vivo
cond: rat, plasma, 30 μmol/kg
observed-property: bioavailability

Problem: // lookup bioavailability for `c1ccc2c(c1)N=C(N1CCNCC1)c1ccccc1S2`
Solution: 11%

---

target-system: Adrenergic α2C (Homo sapiens)
observed-property: IC50 (µM)
One number for each entry, in µM.

Problem: Sample `c1ccc2c(c1)N=C(N1CCNCC1)c1ccccc1S2` — what was its IC50?
Solution: 5.64

---

assay-text: Brain exposure in rats
Type: in vivo
cond: rat, plasma, 30 μmol/kg, heading: average concentration in plasma, one hour after 30 μmol/kg po
observed-property: concentration at 1 h (nM)
One number for each entry, in nM.

Problem: For the compound shown here, `c1ccc2c(c1)N=C(N1CCNCC1)c1ccccc1S2` , give the reported concentration at 1 h.
Solution: 658

---

target-system: H1 receptor (Homo sapiens)
Sequence (P35367 whole entry): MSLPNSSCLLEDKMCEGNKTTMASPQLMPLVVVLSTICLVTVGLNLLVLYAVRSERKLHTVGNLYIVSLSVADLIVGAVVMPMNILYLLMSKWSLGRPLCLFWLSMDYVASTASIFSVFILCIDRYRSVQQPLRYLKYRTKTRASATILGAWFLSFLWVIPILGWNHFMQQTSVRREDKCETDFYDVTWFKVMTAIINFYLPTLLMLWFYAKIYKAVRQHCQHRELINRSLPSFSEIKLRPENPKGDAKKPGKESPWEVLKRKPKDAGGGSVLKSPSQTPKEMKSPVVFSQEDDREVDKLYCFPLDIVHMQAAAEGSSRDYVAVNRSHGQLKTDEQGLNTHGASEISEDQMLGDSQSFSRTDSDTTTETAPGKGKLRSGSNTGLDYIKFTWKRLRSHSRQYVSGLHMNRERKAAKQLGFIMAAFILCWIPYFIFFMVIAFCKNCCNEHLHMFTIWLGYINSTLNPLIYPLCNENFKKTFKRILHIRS
observed-property: Ki
# include the unit after the value

Problem: Any idea what Ki was measured for `c1ccc2c(c1)N=C(N1CCNCC1)c1ccccc1S2` ?
Solution: 1.15 nM

The measured values listed here are drawn from patent US20090093460A1.
